Sourced from the supplement of paper PMC8967900

Entries and their measured selective drug sensitivity score follow.
test system: MOLT-4; assay: selective drug sensitivity score (sDSS, relative to normal bone marrow) (sDSS (score)); higher = more potent and effective on the cell line relative to normal bone marrow cells; conditions: 72 h;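 also: ALL cell lines in 384-well plates, five doses spanning 10,000-fold, each plate scaled between vehicle and 100 µmol/L benzalkonium chloride controls, sDSS an adapted area-under-curve metric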
Give the figure only, with no unit attached.

Consider the reported selective drug sensitivity score for these compounds:
compound	attribute-measured	measured-result
N#CCNC(=O)c1ccc(-c2ccnc(Nc3ccc(N4CCOCC4)cc3)n2)cc1 [Momelotinib] (top concentration 10000 nM)	selective drug sensitivity score	-4.72
CCN(CC)CCCC(C)Nc1ccnc2cc(Cl)ccc12 (configuration not stated) [Chloroquine] (top concentration 100000 nM)	selective drug sensitivity score	-7.24
Cc1nc(Nc2ncc(C(=O)Nc3c(C)cccc3Cl)s2)cc(N2CCN(CCO)CC2)n1 [Dasatinib] (top concentration 1000 nM)	selective drug sensitivity score	1.9
Cn1nccc1Nc1nccc(-c2ccn([C@H](CO)c3ccc(Cl)c(F)c3)c(=O)c2)n1 [Ravoxertinib] (top concentration 10000 nM)	selective drug sensitivity score	-1.2
COc1cccc(-c2ccc(NC(=O)C3=C(C(=O)O)CCC3)c(F)c2)c1 [Vidofludimus] (top concentration 10000 nM)	selective drug sensitivity score	3.6
C[C@]12CC[C@@H]3c4ccc(O)cc4C[C@@H](CCCCCCCCC[S+]([O-])CCCC(F)(F)C(F)(F)F)[C@H]3[C@@H]1CC[C@@H]2O (some centres not stated) [Fulvestrant] (top concentration 1000 nM)	selective drug sensitivity score	0

Now for another entry.
// Nc1cccc2c1CN(C1CCC(=O)NC1=O)C2=O (configuration not stated) [Lenalidomide] (top concentration 100000 nM) : selective drug sensitivity score value = -2.28
